Assignment: determine reported ELISA_avg for the given binders.
Molecular target: T1, BCMA (Homo sapiens (Human), UniProt Q02223 1-54, limits assumed)
T1 sequence: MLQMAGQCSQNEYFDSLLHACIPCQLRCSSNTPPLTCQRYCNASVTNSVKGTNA
Experiment: ELISA, format not described
Design: unit not given here
Quick one: just the number, no unit, thanks!

Ask | Could you share which ELISA_avg value was measured for D-domain SEQ ID NO: 305 (designed binder) MGSWHYFKNGLAIIKEKLEALGGSEAELADFEIWIAMFEMELQEYKGKGNPEVEALRKEAAAIRDELQAYRHN ?
Reply | 19.9

Ask | Could you share which ELISA_avg value was measured for D-domain SEQ ID NO: 319 (designed binder) MGSWIYFKDSLAYIKKYLEALGGSEAELATFEYYIANFEHELQYYKGKGNPEVEALRKEAAAIRDELQAYRHN ?
Reply | 3.2

Ask | Could you share which ELISA_avg value was measured for D-domain SEQ ID NO: 321 (designed binder) MGSWFTFKQNLAWIKLHLEALGGSEAELARFEYYIADFENKLQLYKGKGNPEVEALRKEAAAIRDELQAYRHN ?
Reply | 14.2
